target-entity: T1, rat His-Gαi3 (rat, UniProt P08753 1-354)
T1 chain: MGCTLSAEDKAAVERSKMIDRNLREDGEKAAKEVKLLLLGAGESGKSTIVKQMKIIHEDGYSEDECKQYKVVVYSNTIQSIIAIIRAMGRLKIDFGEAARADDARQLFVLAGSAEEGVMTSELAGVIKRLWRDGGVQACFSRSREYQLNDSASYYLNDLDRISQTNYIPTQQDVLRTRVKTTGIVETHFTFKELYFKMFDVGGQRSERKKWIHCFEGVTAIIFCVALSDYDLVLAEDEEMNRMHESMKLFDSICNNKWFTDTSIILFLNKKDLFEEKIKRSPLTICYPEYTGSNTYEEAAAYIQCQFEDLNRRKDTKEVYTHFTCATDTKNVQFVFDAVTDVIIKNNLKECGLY
test-details: FP
No end group written: not given here. 5,6‑carboxyfluorescein = 5,6-carboxyfluorescein
Kd reference
I only need the number, in nM, no unit after it.

- {5,6‑carboxyfluorescein}-KTGSPGSEVVTLQQFLEESNKLTSVQIKSSSQENL (Made on MBHA resin, which would leave a C-terminal amide; also called fluorescently-labeled GIV peptide; source: synthetic peptide (Boc-SPPS, RP-HPLC purified)) [fluorescein-labeled GIV 1671–1705 peptide]: 560

Here's the next entry for you.
Enquiry: // Kd lookup, key: {5,6‑carboxyfluorescein}-KTGSPGSEVVTLQQFLEESNKLTSVQIKSSS (Made on MBHA resin, which would leave a C-terminal amide; source: synthetic peptide (Boc-SPPS, RP-HPLC purified)) [fluorescently-labeled GIV 1671–1701 peptide]
Return: 460
